- Measured target: T1, memapsin 2 (Homo sapiens, UniProt P56817)
- T1 construct: pET-11 vector-derived residues 1-15 of promemapsin 2-T1 (N, cleaved yes); made in house; host or cells: E. coli
- T1 sequence (P56817 41-454 limits assumed): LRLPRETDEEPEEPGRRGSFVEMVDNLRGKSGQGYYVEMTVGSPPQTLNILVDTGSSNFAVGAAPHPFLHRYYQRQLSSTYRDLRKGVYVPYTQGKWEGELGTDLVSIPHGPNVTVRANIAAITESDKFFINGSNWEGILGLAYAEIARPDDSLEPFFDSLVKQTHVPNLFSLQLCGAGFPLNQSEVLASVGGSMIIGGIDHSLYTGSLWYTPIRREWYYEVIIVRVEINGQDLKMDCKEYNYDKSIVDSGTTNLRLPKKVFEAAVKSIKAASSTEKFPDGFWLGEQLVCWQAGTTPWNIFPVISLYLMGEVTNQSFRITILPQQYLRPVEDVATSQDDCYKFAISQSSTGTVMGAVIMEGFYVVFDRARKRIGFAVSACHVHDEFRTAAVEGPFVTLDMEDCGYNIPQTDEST
- Protocol description: Inhibition of memapsin 2 proteolytic activity, fluorogenic substrate FS-2
- Assay type: biochemical
- Test parameters: memapsin 2; apparent Ki in presence of substrate FS-2; read-out: Ki app
Exercise: state measured pKi for each of the molecules provided.
One number for each entry, as −log10 of the molar value.

1) CSCC[C@H](NC(=O)OCc1cccnc1)C(=O)N[C@@H](Cc1ccccc1)[C@@H](O)C[C@@H](C)C(=O)N[C@H](C(=O)NCc1ccccc1)C(C)C ... 5.68
2) C=CCNC(=O)C[C@H](NC(=O)[C@@H](NC(=O)OCC=C)C(C)C)C(=O)N[C@@H](CC(C)C)[C@@H](O)C[C@@H](C)C(=O)N[C@H](C(=O)NCc1ccccc1)C(C)C ... 7.59

List reported pKi for each of these molecules:
1. CSCC[C@H](NC(=O)[C@@H](NC(=O)OC(C)(C)C)C(C)C)C(=O)N[C@@H](CC(C)C)[C@@H](O)C[C@@H](C)C(=O)N[C@@H](C)C(=O)NCc1ccccc1
2. CSCC[C@H](NC(=O)OC(C)(C)Cn1nc(C)cc1C)C(=O)N[C@@H](CC(C)C)[C@@H](O)C[C@@H](C)C(=O)N[C@@H](CC(C)C)C(=O)NC(C)C
3. CSCC[C@H](NC(=O)[C@@H](NC(=O)OC(C)(C)C)C(C)C)C(=O)N[C@@H](CC(C)C)[C@@H](O)C[C@@H](C)C(=O)N[C@H](C(=O)NCc1ccccc1)C1CCCO1 (some centres unmarked)
4. CCCCNC(=O)[C@@H](NC(=O)[C@H](C)C[C@H](O)[C@H](CC1CCCC1)NC(=O)[C@H](CCSC)NC(=O)OCn1nc(C)cc1C)C(C)C
5. CSCC[C@H](NC(=O)C(Cn1nc(C)cc1C)C(C)C)C(=O)N[C@@H](CC(C)C)[C@@H](O)C[C@@H](C)C(=O)N[C@H](C(=O)NCC(C)C)C(C)C (some centres unmarked)
6. COc1ccccc1C(=O)N[C@@H](CCSC)C(=O)N[C@@H](CC(C)C)[C@@H](O)C[C@@H](C)C(=O)N[C@@H](CC(C)C)C(=O)NC(C)C
7. CC(C)C[C@H](NC(=O)[C@H](CCS(C)(=O)=O)NC(=O)OC(C)(C)C)[C@@H](O)C[C@@H](C)C(=O)N[C@@H](C)C(=O)NCc1ccccc1
8. CSCC[C@H](NC(=O)[C@@H](NC(=O)OC(C)(C)C)C(C)C)C(=O)N[C@@H](CC(C)C)[C@@H](O)C[C@H](C(=O)N[C@@H](C)C(=O)NCc1ccccc1)C(C)C

Output:
7.13
5.85
6.65
6.35
7.56
5.80
4.30
6.12

Input: Any idea what pKi came out for CSCC[C@H](NC(=O)OC(C)(C)C)C(=O)N[C@@H](CC(C)C)[C@@H](O)C[C@@H](C)C(=O)N[C@H](C(=O)NCc1ccccc1)C(C)C on T1, memapsin 2 (Homo sapiens, UniProt P56817)?
Output: 5.04
